Origin of measurements: PubChem BioAssay (NCI)

- System: SF-539 CNS
- test: NCI-60 one-dose screen, 48 h
- conditions.used: 10 µM
This is part of a sample that, as a whole, favours compounds with a hit. Of some 83,000 tested, about 20% had one in any assay. The source made the active and inactive calls. The calls were made as follows: active = growth percent below 10; inactive = the rest.
Classes used: active, inactive

compound	classification
Cc1nn2c(/C=C3/C(=O)Nc4ccc(Cl)cc43)c(-c3ccccc3)nc2s1	inactive
Cc1cc(C(C)(C)CC(C)(C)C)ccc1OCCOCC[N+](C)(C)Cc1ccccc1	active
COc1ccc(Cn2cc3c(c2-c2ccccc2)CC(C)(C)c2cnoc2-3)cc1	active
COc1ccc(-c2nnc(COc3ccc(NC(=O)Nc4ccccc4)cc3F)o2)cc1	inactive
CCN(CC)CCOC(=O)c1ccc(NC(=O)Nc2cccc(Cl)c2)cc1	inactive
COc1ccc2nc(-c3ccccc3)cc(C(C)=O)c2c1	inactive
O=C(O)CNS(=O)(=O)c1ccc(OCCOc2ccc(S(=O)(=O)NCC(=O)O)cc2)cc1	inactive
CC(C)c1[nH]nc2c(NCc3ccc(-c4ccccn4)cc3)nc(SCCN(C)C)nc12	active
C=CCOc1ccc2c(c1)CC[C@@H]1[C@@H]2CC[C@]2(C)C(=O)/C(=N/O)C[C@@H]12	inactive
O=C(Nc1cccc(-c2nc3ccccc3[nH]2)c1)c1cccc(NC(=O)c2ccco2)c1	inactive
Cc1ccc(C(=O)O)c(N)c1C	inactive
CCc1ccc(-c2nnc(COc3ccc(-c4nc5ccccc5[nH]4)cc3OC)o2)cc1	active
O=C(COc1ccc(Cl)cc1Cl)Oc1coc(CSc2nc3ccccc3s2)cc1=O	inactive
CNCCCNCCCN1C(=O)c2ccc3c4c(ccc(c24)C1=O)C(=O)N(CCCNCc1ccccc1OC)C3=O	inactive
COc1cc(/C=C2\C(=O)Nc3cc(C)c(O)cc32)cc(OC)c1OC	inactive
NC1CCC(Nc2nc(NCc3cc(Cl)ccc3O)c3ncn(C4CCCC4)c3n2)CC1 (configuration not stated)	active
O=C(O)c1ccc(CNc2ccc(C(=O)CCl)cc2)cc1	inactive
NC(=O)C1CCCN(Cc2c[nH]c3ccccc23)C1 (configuration not stated)	inactive
CCc1nn2c(-c3ccccc3)c(-c3cc(OC)c(OC)c(OC)c3)nc2s1	inactive
FC(F)(F)c1ccc(-c2nc(-c3nc4cc(Cl)c(Cl)cc4[nH]3)c3ccccn23)cc1	inactive
Nc1nc2c(nnn2C2CC(O)C(CO)O2)c(=O)[nH]1 (configuration not stated)	inactive
O=C(N/N=C\c1cc(Cl)ccc1O)c1ccncc1	inactive
COc1cc(CSc2nc3ccc(C)cc3c(=O)n2Cc2ccccc2)cc(OC)c1OC	active
COc1cc(Cl)cc(-c2nn(-c3cccc(NC(=O)Nc4cccc(C(F)(F)F)c4)c3)cc2-c2ccncc2)c1	inactive
COc1ccc(-c2[nH]ncc2-c2cc(OC)c(OC)c(OC)c2)cc1	active
CCOC(=O)c1c(C)n(-c2ccc(Cl)cc2)c2ccc(OC(=O)/C=C/c3ccccc3)cc12	inactive
CCOc1nc(-c2ccccc2)cc2c(O)c(C(=O)N/N=C/c3ccc(OC)cc3)[nH]c(=O)c12	inactive
Nc1ncc(-c2ccc(C(F)(F)F)cc2)c(NC2CCCCCC2)n1	inactive
Nc1c(C(=O)Nc2ccccc2F)sc2nc3c(cc12)C(=O)CCC3	inactive
CN(C)CCCN1c2ccccc2Sc2ccc(C(F)(F)F)cc21	active
Cc1cc(O)c(C2=NN(c3ccc(S(N)(=O)=O)cc3)C(c3ccc(N(C)C)cc3)C2)c(C)c1Cl (configuration not stated)	inactive
CC(=O)N(O)c1ccc(/C=C/c2ccccc2)cc1	inactive
C[C@]12CC[C@H]3[C@@H](CCC4=CC(=O)CC[C@@]43C)[C@@H]1CC[C@@H]2c1csc(N)n1	inactive
CS(=O)(=O)Nc1ccc(Nc2c3ccccc3nc3cc(Cl)ccc23)cc1	inactive
COc1ccc(-c2[nH]ncc2/C=C/c2cc(C(F)(F)F)[nH]c(=O)n2)cc1	inactive
CCOc1ccc(-n2cc(-c3ccc(N(C)C)cc3)[n+]3c2CCCCC3)cc1	inactive
CCCCc1ccc(NC(=O)N(CCCl)N=O)cc1	inactive
Cc1nc2scc(-c3ccc(Cl)cc3)n2c(=O)c1CCN1CCOCC1	inactive
CC1(CO)CCCC12OCCO2 (configuration not stated)	inactive
O=C(O)CCCCSCCCCC(=O)O	inactive
O=C1/C(=C/c2ccc(O)cc2)CSc2ccc(Cl)cc21	inactive
O=C(NC1CCN(Cc2ccccc2)CC1)c1cc(-c2ccncc2)nc2ccc(Cl)cc12	inactive

----------
- Test system: CCRF-CEM leukemia
- test: NCI-60 one-dose screen, 48 h
- conditions.used: 10 µM
Compounds without any hit were thinned out: in the full panel of roughly 83,000, 20% have a hit. The source made the active and inactive calls. The calls were made as follows: active = growth percent below 10; inactive = the rest.
Outcome codes: true = active, false = inactive

molecule	tgt	classification
CCC1(C)OC(=O)NC1=O (configuration not stated)	CCRF-CEM leukemia	false
CNC(=O)c1cc(Oc2ccc(NC(=O)Nc3ccc(Cl)c(OC4CCCCC4)c3)c(F)c2)ccn1	CCRF-CEM leukemia	false
CCCCCCCCCCCCCCCC(=O)N1CCN(C)CC1	CCRF-CEM leukemia	false
COc1c(-c2c3sc(=O)[nH]c3nc3c2c(=O)[nH]n3C(C)C)cc2c(c1OC)OCO2	CCRF-CEM leukemia	false
N=C(N)c1ccc(-c2ccc(-c3ccccc3)s2)s1	CCRF-CEM leukemia	true
N#Cc1c2c([nH]c(=O)c1C(N)=O)CCCCC2	CCRF-CEM leukemia	false
CCCCc1ccc(NC(=O)N(CCCl)N=O)cc1	CCRF-CEM leukemia	false
C=C[C@]1(C)C=C2C(=O)[C@@]3(O)OC(=O)[C@@]4(CCCC(C)(C)[C@H]34)[C@@]2(O)CC1	CCRF-CEM leukemia	true
Cc1ccc2c3c(cccc13)-c1ccccc1C2=O	CCRF-CEM leukemia	false
CN(C)c1ccc2c(c1)OC(N)=C(C#N)C2c1ccc2c(c1)CCCN2C (configuration not stated)	CCRF-CEM leukemia	false
O=C(Nc1ccc(CN2CCOCC2)cc1)c1ccc(-c2cc(Cl)ccc2Cl)o1	CCRF-CEM leukemia	false
Cn1c([N+](=O)[O-])cnc1C=C1C(=O)c2ccccc2C1=O	CCRF-CEM leukemia	false
COc1cc(C2C=C(c3ccc(Cl)cc3)N=C3SC(C)=CN32)cc(OC)c1OC (configuration not stated)	CCRF-CEM leukemia	false
O=C(CCl)N1c2ccccc2Sc2ccc3ccccc3c21	CCRF-CEM leukemia	true
COCCOC(=O)NC(=O)Nc1ccc(C(=O)c2ccc(Cl)cc2)cc1	CCRF-CEM leukemia	false
Cc1ncc([N+](=O)[O-])n1CCOc1ccc(C(=O)/C=C/c2ccc(C(F)(F)F)cc2)cc1	CCRF-CEM leukemia	false
CCOC(=O)CNC(=O)Nc1ccc(Oc2ccc(NC(=O)NCC(=O)OCC)cc2)cc1	CCRF-CEM leukemia	false
O=C(Nc1cccc(F)c1)Nc1cccc(Cl)c1	CCRF-CEM leukemia	false
CCNC1(NC#N)CCCCC1	CCRF-CEM leukemia	false
c1ccc(OCCC[P+](c2ccccc2)(c2ccccc2)c2ccccc2)cc1	CCRF-CEM leukemia	true
COc1cccc2c1C(=O)c1c(O)c3c(c(O)c1C2=O)C[C@@](O)(C(=O)COC(=O)c1ccccc1)C[C@@H]3OC1CC(N)C(O)C(C)O1 (some centres not stated)	CCRF-CEM leukemia	true
OC(CNC1CCCC1)Cn1c2ccccc2c2ccccc21 (configuration not stated)	CCRF-CEM leukemia	true
COC(=O)C1(C(=O)OC)C2C(=O)C3C(C21)C3(C(=O)OC(C)(C)C)C(=O)OC(C)(C)C (configuration not stated)	CCRF-CEM leukemia	false
CNC(=O)c1cc(Oc2ccc(NC(=O)Nc3ccc(Cl)c(OC(C)C)c3)c(F)c2)ccn1	CCRF-CEM leukemia	false
FC(F)(F)c1ccc(-c2cnc(Br)nc2NC2CCCCCC2)cc1	CCRF-CEM leukemia	false
COc1cc(N=C2C(=O)N(Cc3ccccc3)c3ccccc32)cc(OC)c1OC	CCRF-CEM leukemia	false
CCCCCCCOc1cccc(/C=C2/C(=O)N=C3SCCCN32)c1	CCRF-CEM leukemia	false
C/C(=N\NC(=O)c1sc(=S)n(C)c1N)c1cc2ccccc2o1	CCRF-CEM leukemia	false
CCCCCCCCCCN=C(c1ccc(N(C)C)cc1)c1ccc(N(C)C)cc1	CCRF-CEM leukemia	false
O=C(O)CCCN1C(=O)NC2(C1=O)c1ccccc1-c1ccccc12	CCRF-CEM leukemia	false
C/C=C\COc1cc(C)c(Cl)cc1Cl	CCRF-CEM leukemia	false
Brc1ccc(-c2cn3ccnc3c(-c3ccc(Br)cc3)n2)cc1	CCRF-CEM leukemia	false
CCOC(=O)[C@@H]1[C@H](c2ccccc2)[C@H]([N+](=O)[O-])[C@H](c2cn(-c3ccccc3)nc2C)N1Cc1ccccc1	CCRF-CEM leukemia	false
NC1CCC(Nc2nc(NCc3ccc(-c4ccco4)nc3)c3ncn(C4CCCC4)c3n2)CC1 (configuration not stated)	CCRF-CEM leukemia	true
C[C@H](NC(=O)[C@@H]1CSSC[C@@H](NC(=O)Cc2nc3ccccc3cc2O)C(=O)NCC(=O)N1C)c1ccccc1	CCRF-CEM leukemia	false
Cc1ccc(/C(CS(=O)(=O)c2ccc(C)cc2)=N\O)cc1	CCRF-CEM leukemia	false
N#C/C(=C\N1C(=O)/C(=C/c2cccc([N+](=O)[O-])c2)SC1=S)c1nc2ccccc2s1	CCRF-CEM leukemia	false
CC(=O)Nc1nc(C)c(C(=O)N/N=C/c2cccn2C)s1	CCRF-CEM leukemia	false
Cc1cc(/C=C2\SC(=Nc3ccccc3)N(C3CCCC3)C2=O)c(C)n1-c1ccc(Cl)cc1	CCRF-CEM leukemia	true
Cc1nc2cc(-n3c(-c4ccc(F)cc4)nc4ccccc4c3=O)ccc2n1Cc1ccccc1	CCRF-CEM leukemia	false
O=c1[nH]c(=O)n(C2C[C@@H](O)[C@@H](CO)O2)cc1F (some centres not stated)	CCRF-CEM leukemia	false
O=C1/C(=C/c2cccs2)CCC/C1=C\c1cccs1	CCRF-CEM leukemia	false
